target: SERCA2a (Cavia porcellus); assay: SERCA2a ATPase activity in heart-derived SR microsomes from normal guinea-pig; format: biochemical; details: read-out: Kd Ca2+ (nM) mean ± SD, compound 100 nM
Sequence (A0A286XD73 1-997): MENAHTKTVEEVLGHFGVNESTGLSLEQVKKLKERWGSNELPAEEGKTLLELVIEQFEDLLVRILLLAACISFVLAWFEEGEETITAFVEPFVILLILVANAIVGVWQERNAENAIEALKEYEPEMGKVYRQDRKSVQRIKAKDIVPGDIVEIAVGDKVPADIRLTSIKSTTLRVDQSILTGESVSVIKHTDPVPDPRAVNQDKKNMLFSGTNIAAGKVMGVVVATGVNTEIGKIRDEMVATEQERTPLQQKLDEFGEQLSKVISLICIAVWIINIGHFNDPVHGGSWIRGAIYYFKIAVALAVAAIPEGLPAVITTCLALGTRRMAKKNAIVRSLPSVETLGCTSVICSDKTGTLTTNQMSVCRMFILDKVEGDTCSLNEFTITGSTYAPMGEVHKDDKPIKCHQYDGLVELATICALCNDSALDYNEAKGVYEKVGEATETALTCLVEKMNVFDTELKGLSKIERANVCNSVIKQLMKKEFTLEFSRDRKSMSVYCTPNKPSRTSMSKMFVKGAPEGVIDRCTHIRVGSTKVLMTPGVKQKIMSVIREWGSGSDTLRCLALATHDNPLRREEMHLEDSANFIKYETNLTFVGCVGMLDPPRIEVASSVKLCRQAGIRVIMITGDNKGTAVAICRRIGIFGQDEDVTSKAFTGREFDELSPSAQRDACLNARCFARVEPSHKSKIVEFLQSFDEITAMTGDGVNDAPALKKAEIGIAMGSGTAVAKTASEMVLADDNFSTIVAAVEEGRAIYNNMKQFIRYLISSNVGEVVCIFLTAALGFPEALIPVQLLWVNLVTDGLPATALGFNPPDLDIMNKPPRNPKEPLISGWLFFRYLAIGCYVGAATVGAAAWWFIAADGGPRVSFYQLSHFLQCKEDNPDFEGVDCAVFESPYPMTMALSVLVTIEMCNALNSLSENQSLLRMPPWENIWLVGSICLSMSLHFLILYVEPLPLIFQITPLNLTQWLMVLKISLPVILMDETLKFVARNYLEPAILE
readout.type: Kd (nM)
Just the number please, in nM, no unit attached.

Need Kd, item C[C@]12CC/C(=C/CC3CNC3)CC1[C@@H](O)C[C@@H]1[C@@H]2CC[C@]2(C)C(=O)CC[C@@H]12 (stereo partly drawn) [CVie206]
678

Need Kd, item C[C@]12CC[C@H](CCC3CCNCC3)CC1[C@@H](CO)[C@@H](O)[C@@H]1[C@@H]2CC[C@]2(C)C(=O)CC[C@@H]12 (stereo partly drawn) [CVie412]
363

Need Kd, item CCOC(=O)CCC[C@H]1CC[C@]2(C)C3CC[C@]4(C)C(=O)CCC4C3C[C@H](O)C2C1 (stereo partly drawn) [CVie217]
764

---

target: hERG potassium channel (Homo sapiens (Human), UniProt Q12809); experiment: Receptor binding assay panel: Potassium Channel hERG; settings: crude membrane preparations
Sequence (Q12809 whole entry): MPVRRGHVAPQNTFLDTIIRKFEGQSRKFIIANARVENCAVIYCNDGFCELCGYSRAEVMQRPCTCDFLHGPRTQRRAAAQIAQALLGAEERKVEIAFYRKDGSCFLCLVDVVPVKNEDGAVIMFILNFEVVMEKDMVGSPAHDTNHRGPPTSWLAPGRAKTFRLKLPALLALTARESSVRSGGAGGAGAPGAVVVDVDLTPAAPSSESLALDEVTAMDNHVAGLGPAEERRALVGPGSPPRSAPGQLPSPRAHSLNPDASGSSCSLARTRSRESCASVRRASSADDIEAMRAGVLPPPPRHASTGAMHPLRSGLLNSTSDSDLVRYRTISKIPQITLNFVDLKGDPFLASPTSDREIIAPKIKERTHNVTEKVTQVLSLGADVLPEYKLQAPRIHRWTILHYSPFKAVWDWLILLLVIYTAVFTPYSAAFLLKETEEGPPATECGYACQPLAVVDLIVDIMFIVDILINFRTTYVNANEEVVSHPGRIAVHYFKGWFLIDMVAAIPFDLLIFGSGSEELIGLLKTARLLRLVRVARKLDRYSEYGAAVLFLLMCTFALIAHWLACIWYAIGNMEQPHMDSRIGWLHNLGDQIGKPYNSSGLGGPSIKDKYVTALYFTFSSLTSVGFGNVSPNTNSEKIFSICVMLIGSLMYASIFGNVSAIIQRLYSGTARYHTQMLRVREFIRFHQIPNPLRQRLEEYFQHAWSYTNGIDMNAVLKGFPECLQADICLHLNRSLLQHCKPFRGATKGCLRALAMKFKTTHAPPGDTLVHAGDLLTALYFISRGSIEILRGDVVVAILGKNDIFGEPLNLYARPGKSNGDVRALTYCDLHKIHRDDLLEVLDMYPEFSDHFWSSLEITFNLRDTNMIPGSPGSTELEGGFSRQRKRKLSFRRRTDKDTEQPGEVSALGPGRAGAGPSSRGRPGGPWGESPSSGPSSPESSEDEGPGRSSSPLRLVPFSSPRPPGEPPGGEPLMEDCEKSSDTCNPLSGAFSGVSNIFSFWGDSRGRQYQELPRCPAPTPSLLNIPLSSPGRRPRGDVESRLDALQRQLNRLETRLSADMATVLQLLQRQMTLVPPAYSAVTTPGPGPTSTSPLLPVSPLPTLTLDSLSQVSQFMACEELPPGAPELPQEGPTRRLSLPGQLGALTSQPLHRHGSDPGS
Structures can show the parent of a compound that is named as a salt.
readout.type: inhibition at 10 µM (%)
Just the number please, in %, no unit attached.

Need inhibition at 10 µM, item C[C@]12CC[C@H](CC(=O)O)CC1C(O)CC1C2CC[C@]2(C)C(=O)CCC12 (stereo in doubt) [CVie216-salt]
0

---

# key: entry, value: IC50
target: dog renal Na^+/K^+ ATPase (Canis lupus familiaris (Dog) (Canis familiaris), UniProt P50997); test: biochemical; details: IC50 inhibition of dog renal Na+/K+ ATPase, purified dog kidney enzyme;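 also: enzyme preincubated with inhibitor 10 min at 37 °C, then K^+ and ^32P-ATP added for 15 min, released ^32P counted, activity relative to untreated control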
Just the number please, in µM, no unit attached.

Some solved entries appear below for comparison.
compound	output.unit	result.value
C[C@]12CC=C(CCCCN)CC1[C@@H](O)CC1C2CC[C@]2(C)C(=O)CCC12 (stereo partly shown) [CVie207, hydroiodide]	µM	3.9
C[C@]12CC[C@H](CCC3CNC3)CC1[C@@H](CO)[C@@H](O)C1C2CC[C@]2(C)C(=O)CCC12 (stereo partly shown)	µM	3.3
C[C@]12CC=C(CCC3CCNCC3)CC1[C@@H](O)C[C@@H]1[C@@H]2CC[C@]2(C)C(=O)CC[C@@H]12 (stereo partly shown) [CVie208, hydroiodide]	µM	10.4
CNCCCC/C=C1\CC[C@]2(C)C3CC[C@]4(C)C(=O)CCC4C3C(=O)[C@H](CO)C2C1 (stereo partly shown)	µM	24

Need IC50, item C[C@]12CC/C(=C/CC3CNC3)CC1[C@@H](O)C[C@@H]1[C@@H]2CC[C@]2(C)C(=O)CC[C@@H]12 (stereo partly shown)
5.9

---

target: UniProt:A0A286XD73; assay: SERCA2a ATPase activity in heart-derived SR microsomes from normal guinea-pig; format: biochemical; settings: read-out: Kd Ca2+ (nM) mean ± SD, compound 10 nM
# key: entry, value: Kd
Just the number please, in nM, no unit attached.

compound	readout.type	result.value
CCOC(=O)CCC[C@H]1CC[C@]2(C)C3CC[C@]4(C)C(=O)CCC4C3C[C@H](O)C2C1 (some centres unmarked) [CVie217]	Kd	719
C[C@]12CC[C@H](CCC3CCNCC3)CC1[C@@H](O)C[C@@H]1[C@@H]2CC[C@]2(C)C(=O)CC[C@@H]12 (some centres unmarked) [CVie212]	Kd	409
C[C@]12CC[C@H](CCCC(=O)O)CC1[C@@H](O)CC1C2CC[C@]2(C)C(=O)CCC12 (some centres unmarked) [CVie214]	Kd	467
CCOC(=O)CCCCC[C@H]1CC[C@]2(C)C3CC[C@]4(C)C(=O)CCC4C3C[C@H](O)C2C1 (some centres unmarked) [CVie218]	Kd	677

Now let's try a different one.
Give Kd (UniProt:A0A286XD73) of the following compound: C[C@]12CC[C@H](CC(=O)O)CC1C(O)CC1C2CC[C@]2(C)C(=O)CCC12 (stereo in doubt) [CVie216]
465

Just for reference, patent US12503484B2 is where these values come from.
